target_under_test: MAP4K2 (Homo sapiens)
Construct: purchased KinomeScan, a division of Ambit Biosciences
Sequence (Q12851 whole entry): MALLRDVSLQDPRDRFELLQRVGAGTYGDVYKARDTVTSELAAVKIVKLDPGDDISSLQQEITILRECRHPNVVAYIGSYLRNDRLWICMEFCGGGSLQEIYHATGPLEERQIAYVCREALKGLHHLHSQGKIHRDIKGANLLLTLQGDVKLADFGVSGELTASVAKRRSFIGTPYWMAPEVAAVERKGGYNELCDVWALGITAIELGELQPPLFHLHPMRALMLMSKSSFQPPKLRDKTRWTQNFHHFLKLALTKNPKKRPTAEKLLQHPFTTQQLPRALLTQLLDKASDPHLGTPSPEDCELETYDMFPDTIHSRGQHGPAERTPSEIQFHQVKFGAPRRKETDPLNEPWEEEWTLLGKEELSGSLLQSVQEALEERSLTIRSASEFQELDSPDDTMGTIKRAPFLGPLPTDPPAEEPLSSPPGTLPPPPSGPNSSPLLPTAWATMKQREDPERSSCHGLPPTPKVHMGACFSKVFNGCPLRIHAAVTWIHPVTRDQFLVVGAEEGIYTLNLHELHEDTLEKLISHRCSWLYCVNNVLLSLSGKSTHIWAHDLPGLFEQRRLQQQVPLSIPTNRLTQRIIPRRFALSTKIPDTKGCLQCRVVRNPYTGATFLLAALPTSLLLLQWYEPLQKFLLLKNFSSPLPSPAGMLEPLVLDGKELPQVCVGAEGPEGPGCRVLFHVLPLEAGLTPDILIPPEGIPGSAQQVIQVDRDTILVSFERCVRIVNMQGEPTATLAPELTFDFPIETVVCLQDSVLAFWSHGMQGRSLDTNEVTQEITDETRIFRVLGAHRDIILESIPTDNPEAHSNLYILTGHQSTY
assay_details: KinomeScan competition binding assay
study_conditions: 10 μM compound
property_measured: POC ligand binding, MAP4K2 (POC)
Your answer should be a plain number; it is taken to be in POC.

GET /value?item= N#Cc1ccc2ncnc(NCCc3ccc4ccccc4c3)c2c1 &field=POC ligand binding, MAP4K2 returns 28

GET /value?item= CCCNc1ncnc2ccc(N3CCOCC3)cc12 &field=POC ligand binding, MAP4K2 returns 82

GET /value?item= CC(C)CNc1ncnc2ccc(C(F)(F)F)cc12 &field=POC ligand binding, MAP4K2 returns 12

GET /value?item= COc1ccc2ncnc(NCCc3ccccc3)c2c1 &field=POC ligand binding, MAP4K2 returns 35

GET /value?item= N#Cc1ccc2ncnc(NCc3ccc(Cl)cc3)c2c1 &field=POC ligand binding, MAP4K2 returns 21

GET /value?item= N#Cc1ccc2ncnc(NCCc3ccccc3)c2c1 &field=POC ligand binding, MAP4K2 returns 12

The origin of these recorded values is patent US8598344B2.
